assayMethodText: in vivo
details: rhesus monkey, plasma, iv, 0.75 mg/kg
Description: Compound was tested for its plasma clearance rate in rhesus monkey at a dose of 0.75 mg/kg iv/ 1.5 mg/kg po
parameterMeasured: clearance (mL/min/kg)
Give a bare numeral; the unit mL/min/kg is implied.

Lab note: COc1ccccc1-c1ccc([C@@H](CC(=O)O)NC(=O)[C@@H]2CCN2S(=O)(=O)c2cc(Cl)cc(Cl)c2)cc1 gave clearance of 22.1

* * *

assayMethodText: Compound was tested for its plasma clearance rate in Sprague Dawley rats
details: rat
parameterMeasured: clearance (mL/min/kg)
Give a bare numeral; the unit mL/min/kg is implied.

Lab note: COc1ccccc1-c1ccc([C@@H](CC(=O)O)NC(=O)[C@H]2CCCN2S(=O)(=O)c2cc(Cl)cc(Cl)c2)cc1 gave clearance of 1.1

Lab note: COc1cccc(F)c1-c1ccc([C@@H](CC(=O)O)NC(=O)[C@]2(C)CCCN2S(=O)(=O)c2cc(Cl)cc(Cl)c2)cc1 gave clearance of 2.3

Lab note: COc1cccc(F)c1-c1ccc([C@@H](CC(=O)O)NC(=O)[C@@H]2CCCN2S(=O)(=O)c2cc(Cl)cc(Cl)c2)cc1 gave clearance of 16.3

Lab note: COc1ccc(F)cc1-c1ccc([C@@H](CC(=O)O)NC(=O)[C@]2(C)CCCN2S(=O)(=O)c2cc(Cl)cc(Cl)c2)cc1 gave clearance of 2.3

* * *

assayMethodText: Compound was tested for its plasma clearance rate in Sprague Dawley rats
details: rat
parameterMeasured: clearance (mL/min/kg)
Give a bare numeral; the unit mL/min/kg is implied.

Field: example entries. Status: answers known.
givensmiles=COc1cc(F)cc(-c2ccc([C@@H](CC(=O)O)NC(=O)[C@]3(C)CCCN3S(=O)(=O)c3cc(Cl)cc(Cl)c3)cc2)c1 unittag=mL/min/kg testresult=2.5
givensmiles=COc1cc(F)ccc1-c1ccc([C@@H](CC(=O)O)NC(=O)[C@@H]2CCCN2S(=O)(=O)c2cc(Cl)cc(Cl)c2)cc1 unittag=mL/min/kg testresult=14.6
givensmiles=COc1ccc(F)cc1-c1ccc([C@@H](CC(=O)O)NC(=O)[C@@H]2CCCN2S(=O)(=O)c2cc(Cl)cc(Cl)c2)cc1 unittag=mL/min/kg testresult=13.1

Lab note: COc1ccccc1-c1ccc([C@@H](CC(=O)O)NC(=O)[C@@H]2CCN2S(=O)(=O)c2cc(Cl)cc(Cl)c2)cc1 gave clearance of 5

Lab note: COc1ccc([C@@H](CC(=O)O)NC(=O)[C@@H]2CCN2S(=O)(=O)c2cc(Cl)cc(Cl)c2)cc1 gave clearance of 22.1

Lab note: COc1cccc(OC)c1-c1ccc([C@@H](CC(=O)O)NC(=O)[C@@H]2CCCN2S(=O)(=O)c2cc(Cl)cc(Cl)c2)cc1 gave clearance of 51.6

Lab note: COc1cccc(OC(F)(F)F)c1-c1ccc([C@@H](CC(=O)O)NC(=O)[C@]2(C)CCCN2S(=O)(=O)c2cc(Cl)cc(Cl)c2)cc1 gave clearance of 24.9

* * *

assayMethodText: Compound was tested for its plasma volume distribution in Sprague Dawley rats
details: rat
parameterMeasured: Vd (L/kg)
Give a bare numeral; the unit L/kg is implied.

Field: example entries. Status: answers known.
givensmiles=COc1ccccc1-c1ccc([C@@H](CC(=O)O)NC(=O)[C@H]2CCCN2S(=O)(=O)c2cc(Cl)cc(Cl)c2)cc1 unittag=L/kg testresult=0.08
givensmiles=COc1cccc(OC(F)(F)F)c1-c1ccc([C@@H](CC(=O)O)NC(=O)[C@]2(C)CCCN2S(=O)(=O)c2cc(Cl)cc(Cl)c2)cc1 unittag=L/kg testresult=1.1
givensmiles=COc1ccc([C@@H](CC(=O)O)NC(=O)[C@@H]2CCN2S(=O)(=O)c2cc(Cl)cc(Cl)c2)cc1 unittag=L/kg testresult=1.5
givensmiles=COc1ccc(F)cc1-c1ccc([C@@H](CC(=O)O)NC(=O)[C@]2(C)CCCN2S(=O)(=O)c2cc(Cl)cc(Cl)c2)cc1 unittag=L/kg testresult=0.08
givensmiles=COc1ccccc1-c1ccc([C@@H](CC(=O)O)NC(=O)[C@@H]2CCN2S(=O)(=O)c2cc(Cl)cc(Cl)c2)cc1 unittag=L/kg testresult=0.12

Lab note: COc1ccc(F)cc1-c1ccc([C@@H](CC(=O)O)NC(=O)[C@@H]2CCCN2S(=O)(=O)c2cc(Cl)cc(Cl)c2)cc1 gave Vd of 0.58

Lab note: COc1cccc(F)c1-c1ccc([C@@H](CC(=O)O)NC(=O)[C@@H]2CCCN2S(=O)(=O)c2cc(Cl)cc(Cl)c2)cc1 gave Vd of 0.19

* * *

Reported half-life values for a set of compounds
assayMethodText: Compound was tested for its plasma half life in Sprague Dawley rats
details: rat
Give a bare numeral; the unit h is implied.

Field: example entries. Status: answers known.
givensmiles=COc1cc(F)cc(-c2ccc([C@@H](CC(=O)O)NC(=O)[C@]3(C)CCCN3S(=O)(=O)c3cc(Cl)cc(Cl)c3)cc2)c1 testresult=0.9
givensmiles=COc1cccc(OC)c1-c1ccc([C@@H](CC(=O)O)NC(=O)[C@@H]2CCCN2S(=O)(=O)c2cc(Cl)cc(Cl)c2)cc1 testresult=1.8
givensmiles=COc1cccc(OC(F)(F)F)c1-c1ccc([C@@H](CC(=O)O)NC(=O)[C@]2(C)CCCN2S(=O)(=O)c2cc(Cl)cc(Cl)c2)cc1 testresult=1.6
givensmiles=COc1ccc(F)cc1-c1ccc([C@@H](CC(=O)O)NC(=O)[C@]2(C)CCCN2S(=O)(=O)c2cc(Cl)cc(Cl)c2)cc1 testresult=1.2
givensmiles=COc1ccccc1-c1ccc([C@@H](CC(=O)O)NC(=O)[C@@H]2CCN2S(=O)(=O)c2cc(Cl)cc(Cl)c2)cc1 testresult=2.4

Lab note: COc1ccccc1-c1ccc([C@@H](CC(=O)O)NC(=O)[C@H]2CCCN2S(=O)(=O)c2cc(Cl)cc(Cl)c2)cc1 gave half-life of 1.3

* * *

assayMethodText: Compound was tested for its plasma volume distribution in Sprague Dawley rats
details: rat
parameterMeasured: Vd (L/kg)
Give a bare numeral; the unit L/kg is implied.

Field: example entries. Status: answers known.
givensmiles=COc1cccc(OC)c1-c1ccc([C@@H](CC(=O)O)NC(=O)[C@@H]2CCCN2S(=O)(=O)c2cc(Cl)cc(Cl)c2)cc1 unittag=L/kg testresult=1.4
givensmiles=COc1cc(F)cc(-c2ccc([C@@H](CC(=O)O)NC(=O)[C@]3(C)CCCN3S(=O)(=O)c3cc(Cl)cc(Cl)c3)cc2)c1 unittag=L/kg testresult=0.12

Lab note: next compound to report on.
Lab note: COc1cccc(F)c1-c1ccc([C@@H](CC(=O)O)NC(=O)[C@]2(C)CCCN2S(=O)(=O)c2cc(Cl)cc(Cl)c2)cc1 gave Vd of 0.13

* * *

assayMethodText: Compound was tested for its plasma half life in Sprague Dawley rats
details: rat
parameterMeasured: half-life (h)
Give a bare numeral; the unit h is implied.

givensmiles=COc1ccc(F)cc1-c1ccc([C@@H](CC(=O)O)NC(=O)[C@@H]2CCCN2S(=O)(=O)c2cc(Cl)cc(Cl)c2)cc1 testresult=3
givensmiles=COc1cccc(F)c1-c1ccc([C@@H](CC(=O)O)NC(=O)[C@]2(C)CCCN2S(=O)(=O)c2cc(Cl)cc(Cl)c2)cc1 testresult=1.3
givensmiles=COc1ccc([C@@H](CC(=O)O)NC(=O)[C@@H]2CCN2S(=O)(=O)c2cc(Cl)cc(Cl)c2)cc1 testresult=1.1

Lab note: next compound to report on.
Lab note: COc1cccc(F)c1-c1ccc([C@@H](CC(=O)O)NC(=O)[C@@H]2CCCN2S(=O)(=O)c2cc(Cl)cc(Cl)c2)cc1 gave half-life of 0.7
